# Test system: Solenopsis invicta
# method_notes: whole plant or invertebrate
# Assay type: in vivo
# test_settings: 100 ppm; 72 h; water test tube poison-feeding
# From the text: (4) Insecticidal Activity on Solenopsis invicta. As a hymenoptera pests and a social insect, Solenopsis invicta is one of the most destructive invasive organisms. Solenopsis invicta were used as test objects and tested by using a water test tube poison-feeding method. […]
readout_label: Solenopsis invicta Mortality (%) 72 h
API: value field is a number in %; no unit string.

Recorded Solenopsis invicta Mortality (%) 72 h for CC(=O)CC1(C(C)=O)Nc2c([S+]([O-])C(F)(F)F)c(C#N)nn2-c2c(Cl)cc(C(F)(F)F)cc21 (stereo not shown) , please?
90

Consider the compound shown here: COC(=O)C(C)C1Nc2c(OC(F)(F)F)c(C#N)nn2-c2c(Cl)cc(C(F)(F)F)cc21 (stereo not shown) What is its recorded Solenopsis invicta Mortality (%) 72 h?
95

GET /values?readout=Solenopsis invicta Mortality (%) 72 h&item= COC(=O)C1(CC(=O)OCC(F)(F)F)Nc2c([S+]([O-])C(F)(F)F)c(C#N)nn2-c2c(C(F)(F)F)ccc(Cl)c21 (stereo not shown)
98

Given the compound COC(=O)CC1(C(=O)OC)Nc2c([S+]([O-])C(F)(F)F)c(C(C)=O)nn2-c2c(Cl)cc(C(F)(F)F)cc21 (stereo not shown) , what is its reported Solenopsis invicta Mortality (%) 72 h?
65

Quick one: Solenopsis invicta Mortality (%) 72 h for COC(=O)CC1Nc2c([S+]([O-])C(F)(F)F)c(C(F)(F)F)nn2-c2cncc(Cl)c21 (stereo not shown) ?
100

Solenopsis invicta Mortality (%) 72 h for COC(=O)CC1(C(=O)OC)Nc2c([S+](C)[O-])c(C#N)nn2-c2c(Cl)cc(C(F)(F)F)cc21 (stereo not shown) ?
89

Which value of Solenopsis invicta Mortality (%) 72 h has been reported for COC(=O)C1(CC(F)(F)F)Nc2c([S+]([O-])C(F)(F)F)c(C#N)nn2-c2c(Cl)cc(C(F)(F)F)cc21 (stereo not shown) in the records?
100

Which Solenopsis invicta Mortality (%) 72 h reading was recorded for the compound N#Cc1nn2c(c1OC(F)(F)F)NC(C#N)c1c(Cl)cncc1-2 (stereo not shown) ?
99

I'd like to know its Solenopsis invicta Mortality (%) 72 h. The compound in question is COC(=O)CC1(C(=O)OC)Nc2c(C#N)c(C(F)(F)F)nn2-c2cncc(Cl)c21 (stereo not shown)
97

# lookup: Solenopsis invicta Mortality (%) 72 h of CNC(=O)C1Nc2c([S+]([O-])C(F)(F)F)c(C(F)(F)F)nn2-c2c(Cl)cc(C(F)(F)F)cc21 (stereo not shown)
85

What value of measured Solenopsis invicta Mortality (%) 72 h is listed for CNC(=O)CC1Nc2c(OC(F)(F)F)c(C#N)nn2-c2c(Cl)cc(C(F)(F)F)cc21 (stereo not shown) ?
95

So what does the record say about Solenopsis invicta Mortality (%) 72 h for CCOC(=O)C1(CC(=O)OC(C(F)(F)F)C(F)(F)F)Nc2c([S+]([O-])C(F)(F)F)c(C#N)nn2-c2c(Cl)cc(C(F)(F)F)cc21 (stereo not shown) ?
100

Can you look up the measured Solenopsis invicta Mortality (%) 72 h of COC(=O)C1(CC(=O)OCC(F)F)Nc2c([S+]([O-])C(F)(F)F)c(C#N)nn2-c2c(C(F)(F)F)ccc(Cl)c21 (stereo not shown) for me?
100

Return reported Solenopsis invicta Mortality (%) 72 h; argument: COC(=O)C1(CC#N)Nc2c([S+]([O-])C(F)(F)F)c(C#N)nn2-c2cncc(Cl)c21 (stereo not shown)
93

Report Solenopsis invicta Mortality (%) 72 h for COC(=O)C1Nc2c([S+]([O-])C(F)(F)F)c(C(F)(F)F)nn2-c2cncc(Cl)c21 (stereo not shown) please.
100

What value of Solenopsis invicta Mortality (%) 72 h has been recorded for this entry: CC(C)C1Nc2c(OC(F)(F)F)c(C#N)nn2-c2cncc(Cl)c21 (stereo not shown)
100

What value of Solenopsis invicta Mortality (%) 72 h has been recorded for this entry: COC(=O)CC1(C(=O)C(F)(F)F)Nc2c([S+]([O-])C(F)(F)F)c(C#N)nn2-c2c(Cl)cc(C(F)(F)F)cc21 (stereo not shown)
99

Look up Solenopsis invicta Mortality (%) 72 h for this compound: N#CCC1(C(=O)C(F)(F)F)Nc2c([S+]([O-])C(F)(F)F)c(C#N)nn2-c2cncc(Cl)c21 (stereo not shown)
94

Suppose we examine the compound CC(=O)C1(CC(=O)C(F)(F)F)Nc2c([S+]([O-])C(F)(F)F)c(C#N)nn2-c2c(Cl)cc(C(F)(F)F)cc21 (stereo not shown) ; what Solenopsis invicta Mortality (%) 72 h value has been reported?
100

Give the measured Solenopsis invicta Mortality (%) 72 h of COC(=O)CC1(C#N)Nc2c([S+]([O-])C(F)(F)F)c(C#N)nn2-c2c(Cl)cc(C(F)(F)F)cc21 (stereo not shown) .
99

What measured Solenopsis invicta Mortality (%) 72 h goes with COC(=O)C1(CC(N)=O)Nc2c([S+]([O-])C(F)(F)F)c(C#N)nn2-c2c(Cl)cc(C(F)(F)F)cc21 (stereo not shown) ?
100

If you can, please state the reported Solenopsis invicta Mortality (%) 72 h value of COC(=O)CC1Nc2c(OC(F)(F)F)c(C#N)nn2-c2cncc(Cl)c21 (stereo not shown) .
100

Reported Solenopsis invicta Mortality (%) 72 h for CC(=O)C1(CC(=O)C(F)(F)F)Nc2c([S+]([O-])C(F)(F)F)c(C#N)nn2-c2cc(C(F)(F)F)cc(Cl)c21 (stereo not shown) : what is it?
99

Name the recorded Solenopsis invicta Mortality (%) 72 h for COC(=O)C1(CBr)Nc2c([S+]([O-])C(F)(F)F)c(C#N)nn2-c2c(Cl)cc(C(F)(F)F)cc21 (stereo not shown) .
93

Form field: reported Solenopsis invicta Mortality (%) 72 h of COC(=O)C1(CC(=O)OCC(F)(F)F)Nc2c([S+]([O-])C(F)(F)F)c(C#N)nn2-c2cc(C(F)(F)F)cc(Cl)c21 (stereo not shown)
100

Name the recorded Solenopsis invicta Mortality (%) 72 h for N#Cc1nn2c(c1[S+]([O-])C(F)(F)F)NC(Br)(CC(=O)C(F)(F)F)c1cc(C(F)(F)F)cc(Cl)c1-2 (stereo not shown) .
90

Fill blank: measured Solenopsis invicta Mortality (%) 72 h of the compound N#Cc1nn2c(c1[S+]([O-])C(F)(F)F)NC(C#N)(CC(F)(F)F)c1cc(C(F)(F)F)cc(Cl)c1-2 (stereo not shown) is ____.
90

# input compound: CCOC(=O)CC1(C(=O)OC)Nc2c([S+]([O-])C(F)(F)F)c(C#N)nn2-c2c(C(F)(F)F)ccc(Cl)c21 (stereo not shown) ; wanted: its Solenopsis invicta Mortality (%) 72 h
100

Look up Solenopsis invicta Mortality (%) 72 h: COC(=O)CC1Nc2c([S+]([O-])C(F)(F)F)c(C(F)(F)F)nn2-c2c(Cl)cc(C(F)(F)F)cc21 (stereo not shown)
99

Which Solenopsis invicta Mortality (%) 72 h value belongs to COC(=O)CC1(C(=O)OC)Nc2c([S+]([O-])C(F)(F)F)c(C#N)nn2-c2cc(OC(F)(F)F)cc(Cl)c21 (stereo not shown) ?
100

For the compound CNC(=O)CC1Nc2c(OC(F)(F)F)c(C#N)nn2-c2cncc(Cl)c21 (stereo not shown) , what Solenopsis invicta Mortality (%) 72 h is on record?
100

* * *

# System: Solenopsis invicta
# method_notes: whole plant or invertebrate
# Format: in vivo
# test_settings: 100 ppm; 24 h; water test tube poison-feeding
Assignment: determine reported Solenopsis invicta Mortality (%) 24 h for the given compounds.
Reply numerically in %, unit not repeated.

If you can, please state the reported Solenopsis invicta Mortality (%) 24 h value of CC(=O)C1(CC(=O)C(F)(F)F)Nc2c([S+]([O-])C(F)(F)F)c(C#N)nn2-c2c(Cl)cc(C(F)(F)F)cc21 (stereo not drawn) [d-49] .
29

Please look up its Solenopsis invicta Mortality (%) 24 h: N#CCC1(Cl)Nc2c([S+]([O-])C(F)(F)F)c(C#N)nn2-c2cncc(Cl)c21 (stereo not shown) [b-47]
18

Reported Solenopsis invicta Mortality (%) 24 h, compound COC(=O)C1(CC(=O)OCC(F)F)Nc2c([S+]([O-])C(F)(F)F)c(C#N)nn2-c2c(C(F)(F)F)ccc(Cl)c21 (stereo not shown) [e-4] : ____
32

Consider the compound shown here: COC(=O)CC1Nc2c([S+]([O-])C(F)(F)F)c(C(F)(F)F)nn2-c2cncc(Cl)c21 (stereo not shown) [b-88] What is its recorded Solenopsis invicta Mortality (%) 24 h?
25

* * *

# Test system: Spodoptera exigua
# method_notes: whole plant or invertebrate
# Assay type: in vivo
# test_settings: 500 ppm; 2nd-instar larvae, leaf immersion feeding
Assign Spodoptera exigua Mortality (%) to each entry below.
Write down the numeric answer in % and omit the unit.

Query (compound): CC(=O)C1(CBr)Nc2c([S+]([O-])C(F)(F)F)c(C#N)nn2-c2cncc(Cl)c21 (stereo not drawn) ; field requested: Spodoptera exigua Mortality (%)
87

Requested read-out: Spodoptera exigua Mortality (%). Entry: CC(=O)C1(CC(=O)C(F)(F)F)Nc2c([S+]([O-])C(F)(F)F)c(C#N)nn2-c2cncc(Cl)c21 (stereo not drawn)
90

Which Spodoptera exigua Mortality (%) is reported for this compound? COC(=O)CC1(C(=O)OC)Nc2c(OC(F)(F)F)c(C#N)nn2-c2c(Cl)cc(C(F)(F)F)cc21 (stereo not drawn)
98

// lookup Spodoptera exigua Mortality (%) for CCOC(=O)CC1(C(=O)OC)Nc2c([S+]([O-])C(F)(F)F)c(C#N)nn2-c2c(C(F)(F)F)ccc(Cl)c21 (stereo not drawn)
100

Query (compound): CNC(=O)C1Nc2c([S+]([O-])C(F)(F)F)c(C(F)(F)F)nn2-c2cncc(Cl)c21 (stereo not drawn) ; field requested: Spodoptera exigua Mortality (%)
85

Give its Spodoptera exigua Mortality (%) value. Item: CC(=O)C1(CC(F)(F)F)Nc2c([S+]([O-])C(F)(F)F)c(C#N)nn2-c2c(Cl)cc(C(F)(F)F)cc21 (stereo not drawn)
90

Given the entry CCOC(=O)C1(CC(=O)OC)Nc2c([S+]([O-])C(F)(F)F)c(C#N)nn2-c2cncc(Cl)c21 (stereo not drawn) , report its measured Spodoptera exigua Mortality (%).
95

Spodoptera exigua Mortality (%) lookup needed for COC(=O)CC1(C(=O)OC)Nc2c(C#N)c(C(F)(F)F)nn2-c2cncc(Cl)c21 (stereo not drawn) , thanks.
100

Requested field: Spodoptera exigua Mortality (%). Item: COC(=O)C1(CC(=O)OCC(F)(F)F)Nc2c([S+]([O-])C(F)(F)F)c(C#N)nn2-c2cc(C(F)(F)F)cc(Cl)c21 (stereo not drawn)
100

Suppose we examine the compound N#Cc1nn2c(c1[S+]([O-])C(F)(F)F)NC(Cc1ccccc1)(C(=O)C(F)(F)F)c1c(Cl)cncc1-2 (stereo not drawn) ; what Spodoptera exigua Mortality (%) value has been reported?
89

So what's the measured Spodoptera exigua Mortality (%) for this one? N#Cc1nn2c(c1[S+]([O-])C(F)(F)F)NC(Cl)c1cc(C(F)(F)F)cc(Cl)c1-2 (stereo not drawn)
80

Please look up its Spodoptera exigua Mortality (%): CC[S+]([O-])c1c(C#N)nn2c1NC(CC(=O)OC)(C(=O)OC)c1cc(C(F)(F)F)cc(Cl)c1-2 (stereo not drawn)
89

Recorded Spodoptera exigua Mortality (%) for CNC1(CC#N)Nc2c([S+]([O-])C(F)(F)F)c(C#N)nn2-c2cncc(Cl)c21 (stereo not drawn) , please?
80

GET /values?readout=Spodoptera exigua Mortality (%)&item= COC(=O)C1Nc2c([S+]([O-])C(F)(F)F)c(C(F)(F)F)nn2-c2cncc(Cl)c21 (stereo not drawn)
95

What Spodoptera exigua Mortality (%) value was documented for this compound, COC(=O)CC1(C(=O)OC)Nc2c([S+]([O-])C(F)(F)F)c(C#N)nn2-c2cc(C(F)(F)F)cc(Cl)c21 (racemic) ?
100

Value lookup for Spodoptera exigua Mortality (%); key = CC(=O)C1(CC(=O)C(F)(F)F)Nc2c([S+]([O-])C(F)(F)F)c(C#N)nn2-c2c(Cl)cc(C(F)(F)F)cc21 (stereo not drawn)
100

Recorded Spodoptera exigua Mortality (%) of COC(=O)CC1(C(=O)C(F)(F)F)Nc2c([S+]([O-])C(F)(F)F)c(C#N)nn2-c2c(Cl)cc(C(F)(F)F)cc21 (stereo not drawn) , please.
99

So what does the record say about Spodoptera exigua Mortality (%) for O=C(C1Nc2c([S+]([O-])C(F)(F)F)c(C(F)(F)F)nn2-c2cncc(Cl)c21)C(F)(F)F (stereo not drawn) ?
90

What measured Spodoptera exigua Mortality (%) goes with COC(=O)CC1(C(=O)OC)Nc2c(C(F)(F)F)c(C#N)nn2-c2cc(C(F)(F)F)cc(Cl)c21 (stereo not drawn) ?
90

Returns the measured Spodoptera exigua Mortality (%) for the input compound. Input: N#CCC1Nc2c(OC(F)(F)F)c(C#N)nn2-c2c(Cl)cc(C(F)(F)F)cc21 (stereo not drawn)
100

Item CCOC(=O)C1(CC(=O)OC)Nc2c([S+]([O-])C(F)(F)F)c(C#N)nn2-c2c(C(F)(F)F)ccc(Cl)c21 (stereo not drawn) has what recorded Spodoptera exigua Mortality (%)?
100

Entry N#Cc1nn2c(c1[S+]([O-])C(F)(F)F)NC(Br)(CC(=O)C(F)(F)F)c1cc(C(F)(F)F)cc(Cl)c1-2 (stereo not drawn) has what Spodoptera exigua Mortality (%)?
95

Look up Spodoptera exigua Mortality (%) for this compound: N#CCC1(Cl)Nc2c([S+]([O-])C(F)(F)F)c(C#N)nn2-c2c(Cl)cc(C(F)(F)F)cc21 (stereo not drawn)
90

If you can, please state the reported Spodoptera exigua Mortality (%) value of [O-][S+](c1c(C(F)(F)F)nn2c1NC(C(F)(F)F)c1cc(C(F)(F)F)cc(Cl)c1-2)C(F)(F)F (stereo not drawn) .
100

# query: Spodoptera exigua Mortality (%) of entry COC(=O)CC1(C(=O)OC)Nc2c([S+]([O-])C(F)(F)F)c(C#N)nn2-c2cncc(Cl)c21 (stereo not drawn)
100

So what does the record say about Spodoptera exigua Mortality (%) for CC=CC1Nc2c([S+]([O-])C(F)(F)F)c(C(F)(F)F)nn2-c2c(Cl)cc(C(F)(F)F)cc21 (stereo not drawn) ?
90

# get_value(readout='Spodoptera exigua Mortality (%)', item= N#Cc1nn2c(c1OC(F)(F)F)NC(CC(=O)C(F)(F)F)c1c(Cl)cncc1-2 (stereo not drawn) )
98
